- Study system: human IL-23R (Homo sapiens)
- Sequence (Q5VWK5 22-629): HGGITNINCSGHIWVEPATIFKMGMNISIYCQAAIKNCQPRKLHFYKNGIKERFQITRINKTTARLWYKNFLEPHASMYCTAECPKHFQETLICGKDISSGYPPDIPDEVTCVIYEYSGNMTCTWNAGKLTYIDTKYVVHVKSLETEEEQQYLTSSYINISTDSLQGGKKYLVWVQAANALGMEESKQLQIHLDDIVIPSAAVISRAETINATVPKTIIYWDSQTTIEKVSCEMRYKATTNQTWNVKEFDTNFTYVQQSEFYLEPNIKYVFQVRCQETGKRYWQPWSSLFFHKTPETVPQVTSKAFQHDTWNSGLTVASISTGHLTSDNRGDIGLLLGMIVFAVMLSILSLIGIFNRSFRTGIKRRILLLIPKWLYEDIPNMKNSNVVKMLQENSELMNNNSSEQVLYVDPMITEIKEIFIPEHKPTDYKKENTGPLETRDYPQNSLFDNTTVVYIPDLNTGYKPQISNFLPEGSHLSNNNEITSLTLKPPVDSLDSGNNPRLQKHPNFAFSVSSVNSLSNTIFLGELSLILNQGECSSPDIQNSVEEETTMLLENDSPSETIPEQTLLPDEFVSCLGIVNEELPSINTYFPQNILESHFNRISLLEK
- Test description: biochemical
*1 amine or outer side, *2 acyl side, *3 side chain or, on linkers, in order; H or OH if unused. Where a SMILES comes first, the peptide text is derived from it. Bridges are numbered along the chain shown (N, C = ends). [ ]: non-standard residue; d: D form. X7 = O=C(C[C@H](CCCN[*:3])N[*:2])[*:1]; 2Nal = N[C@@H](Cc1ccc2ccccc2c1)C(=O)O; AEF = NCCOc1ccc(C[C@H](N)C(=O)O)cc1; 3Pal = N[C@@H](Cc1cccnc1)C(=O)O; αMeL = CC(C)C[C@](C)(N)C(=O)O; CH2COCH2 = O=C(C[*:1])C[*:2]; Dab = NCC[C@H](N)C(=O)O
Quantity kind: % displacement (hIL-23R NIuc) (%)

>  <Compound>
CNC(=O)[C@H](Cc1cccnc1)NC(=O)[C@H](CCN)NC(=O)[C@@H]1CCC(=O)NCCCC[C@@H]2NC(=O)CC[C@H](NC(=O)[C@H](CCC(N)=O)NC(=O)[C@H](Cc3c[nH]c4ccccc34)NC(=O)CNC2=O)C(=O)N[C@@H](Cc2ccc(OCCN)cc2)C(=O)N[C@@H](Cc2ccc3ccccc3c2)C(=O)N[C@@](C)(CC(C)C)C(=O)N1

>  <Endpoint value>
100

$$$$
>  <Compound>
CC(=O)N[C@H]1CCCCNC(=O)CC[C@@H](C(=O)N[C@@H](CCN)C(=O)N[C@@H](Cc2cccnc2)C(N)=O)NC(=O)[C@](C)(CC(C)C)NC(=O)[C@H](Cc2ccc3ccccc3c2)NC(=O)[C@H](Cc2ccc(OCCN)cc2)NC(=O)[C@@H]2CSCC(=O)CSC[C@H](NC(=O)[C@H]([C@@H](C)O)NC1=O)C(=O)N[C@@H](Cc1c[nH]c3ccccc13)C(=O)N[C@@H](CCC(N)=O)C(=O)N2 [Ref 155, reference compound] (Ac-KTCWQC[AEF][2Nal][αMeL]E[Dab][3Pal]-NH2; lactam 1-10; linker 3-6 via CH2COCH2)

>  <Endpoint value>
97

$$$$
>  <Compound>
CNC(=O)[C@H](Cc1cccnc1)NC(=O)[C@H](Cc1cccnc1)NC(=O)[C@@H]1CCC(=O)NCCCC[C@@H]2NC(=O)CC[C@H](NC(=O)[C@H](CCC(N)=O)NC(=O)[C@H](Cc3c[nH]c4ccccc34)NC(=O)CCNC2=O)C(=O)N[C@@H](Cc2ccc(OCCN)cc2)C(=O)N[C@@H](Cc2ccc3ccccc3c2)C(=O)N[C@@](C)(CC(C)C)C(=O)N1

>  <Endpoint value>
103

$$$$
>  <Compound>
CC(C)C[C@]1(C)NC(=O)[C@H](Cc2ccc3ccccc3c2)NC(=O)[C@H](Cc2ccc(OCCN)cc2)NC(=O)[C@@H]2CCC(=O)N[C@@H](CCCNC(=O)CC[C@@H](C(=O)N[C@@H](CCN)C(=O)N[C@@H](Cc3cccnc3)C(N)=O)NC1=O)CC(=O)N[C@@H]([C@@H](C)O)C(=O)N[C@@H](C(C)C)C(=O)N[C@@H](Cc1c[nH]c3ccccc13)C(=O)N[C@@H](CCC(N)=O)C(=O)N2 [Compound 12] (TVWQE[AEF][2Nal][αMeL]E[Dab][3Pal]-NH2; linker N-5-9 via X7)

>  <Endpoint value>
104

$$$$
